test: Ex vivo biodistribution / in vivo GRPR targeting in PC-3 tumor-bearing mice; parameters: species or system Balb/c nu/nu mice; conditions: Balb/c nu/nu, mouse, bone, total radioactivity; PC-3 xenografts, 1 h pi, 40 pmol / 30 kBq co-injected with 5 nmol NOTA-PEG2-RM26, average ± SD, n = 4; read-out: Uptake in bone, blocked
Where a SMILES comes first, the peptide text is derived from it. [ ]: non-standard residue; d: D form. The star is where a group is joined. Sta = CC(C)C[C@H](N)[C@@H](O)CC(=O)O; Mercaptoacetyl = O=C(CS)*; AEEA = NCCOCCOCC(=O)O

[
  {
    "compound": "CC(C)C[C@H](NC(=O)C[C@H](O)[C@H](CC(C)C)NC(=O)[C@H](Cc1c[nH]cn1)NC(=O)CNC(=O)[C@@H](NC(=O)[C@H](C)NC(=O)[C@H](Cc1c[nH]c2ccccc12)NC(=O)[C@H](CCC(N)=O)NC(=O)[C@@H](Cc1ccccc1)NC(=O)COCCOCCNC(=O)[C@H](CO)NC(=O)[C@H](CO)NC(=O)[C@H](CO)NC(=O)CS)C(C)C)C(N)=O [[^99mTc]Tc-maSSS-PEG2-RM26, metal not drawn] (Mercaptoacetyl-SSS[AEEA][dF]QWAVGH[Sta]L-NH2)",
    "unitInfo": "%ID/g",
    "tissue uptake at 1 h": 0.042
  }
]
